compounds and their reported pIC50
target: Recombinant human EIF2AK3 (PERK) catalytic domain (amino acids 536-1116) (Homo sapiens (Human), UniProt Q9NZJ5); assay: PERK In Vitro Activity Assay (isolated), TR-FRET kinase assay; conditions: isolated PERK enzyme, 1.5 μM ATP, read-out: Biochemical IC50
Sequence (Q9NZJ5 536-1116): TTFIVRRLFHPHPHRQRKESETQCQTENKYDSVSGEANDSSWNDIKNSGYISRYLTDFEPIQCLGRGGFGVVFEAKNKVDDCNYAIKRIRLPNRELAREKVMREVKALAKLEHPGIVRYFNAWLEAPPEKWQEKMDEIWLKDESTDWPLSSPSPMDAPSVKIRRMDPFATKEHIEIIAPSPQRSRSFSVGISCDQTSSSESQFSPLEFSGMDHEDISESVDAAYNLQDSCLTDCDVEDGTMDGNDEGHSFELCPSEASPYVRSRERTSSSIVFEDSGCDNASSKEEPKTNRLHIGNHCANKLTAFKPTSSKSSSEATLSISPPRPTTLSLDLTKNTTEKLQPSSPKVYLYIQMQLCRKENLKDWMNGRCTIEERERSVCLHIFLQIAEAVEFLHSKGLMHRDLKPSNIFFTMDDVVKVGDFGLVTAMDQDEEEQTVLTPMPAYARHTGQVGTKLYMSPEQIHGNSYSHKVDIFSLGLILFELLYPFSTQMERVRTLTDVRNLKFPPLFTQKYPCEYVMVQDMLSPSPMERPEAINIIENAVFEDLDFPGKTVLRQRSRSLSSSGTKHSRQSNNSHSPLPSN
pIC50: −log10 of the molar value.

[2H]C([2H])([2H])c1nc(-c2ccc(NC(=O)C(O)c3cccc(Cl)c3)cc2F)c2c(N)nc(C)cn12 (stereo not shown) [Example 81] ... 7.60 to 9.00
Cc1cnc(N)c2c(-c3ccc(NC(=O)C(O)c4cccc(F)c4)c(F)c3)nc(C)n12 (stereo not shown) [Example 125] ... 7.60 to 9.00
Cc1cc(F)cc(C(O)C(=O)Nc2ccc(-c3nc(C)n4c(C)cnc(N)c34)c(C)c2)c1 (stereo not shown) [Example 63] ... 7.60 to 9.00

Query: Recorded pIC50 for [2H]C([2H])([2H])c1nc(-c2ccc(NC(=O)C(O)c3cc(F)cc(C(F)(F)F)c3)cc2C)c2c(N)ncc(C(F)(F)F)n12 (stereo not shown) [Example 61] , please?
Reply: 7.00 to 7.29

Query: Same question for Cc1cc(NC(=O)C(O)c2cc(F)cc(C(F)(F)F)c2)ccc1-c1nc(C)n2c(C)cnc(N)c12 (stereo not shown) [Example 59] please.
Reply: 7.60 to 9.00

Query: Same question for [2H]C([2H])([2H])c1nc(-c2ccc(NC(=O)C(O)c3cccc(Cl)c3)cc2C)c2c(N)nc(C)cn12 (stereo not shown) [Example 35] please.
Reply: 6.60 to 7.00

Query: Same question for Cc1cccc(C(O)C(=O)Nc2ccc(-c3nc(C)n4c(C)cnc(N)c34)c(F)c2)c1 (stereo not shown) [Example 88] please.
Reply: 7.60 to 9.00
